Reported pIC50 values for the following molecules.
# experimental-target: MAP4K4 (h) (Homo sapiens (Human));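 also: kinase activity remaining relative to the DMSO control, IC50 derived from sigmoidal variable-slope curve fits, no preincubation of compound with enzyme before ATP start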
# Sequence (O95819 whole entry): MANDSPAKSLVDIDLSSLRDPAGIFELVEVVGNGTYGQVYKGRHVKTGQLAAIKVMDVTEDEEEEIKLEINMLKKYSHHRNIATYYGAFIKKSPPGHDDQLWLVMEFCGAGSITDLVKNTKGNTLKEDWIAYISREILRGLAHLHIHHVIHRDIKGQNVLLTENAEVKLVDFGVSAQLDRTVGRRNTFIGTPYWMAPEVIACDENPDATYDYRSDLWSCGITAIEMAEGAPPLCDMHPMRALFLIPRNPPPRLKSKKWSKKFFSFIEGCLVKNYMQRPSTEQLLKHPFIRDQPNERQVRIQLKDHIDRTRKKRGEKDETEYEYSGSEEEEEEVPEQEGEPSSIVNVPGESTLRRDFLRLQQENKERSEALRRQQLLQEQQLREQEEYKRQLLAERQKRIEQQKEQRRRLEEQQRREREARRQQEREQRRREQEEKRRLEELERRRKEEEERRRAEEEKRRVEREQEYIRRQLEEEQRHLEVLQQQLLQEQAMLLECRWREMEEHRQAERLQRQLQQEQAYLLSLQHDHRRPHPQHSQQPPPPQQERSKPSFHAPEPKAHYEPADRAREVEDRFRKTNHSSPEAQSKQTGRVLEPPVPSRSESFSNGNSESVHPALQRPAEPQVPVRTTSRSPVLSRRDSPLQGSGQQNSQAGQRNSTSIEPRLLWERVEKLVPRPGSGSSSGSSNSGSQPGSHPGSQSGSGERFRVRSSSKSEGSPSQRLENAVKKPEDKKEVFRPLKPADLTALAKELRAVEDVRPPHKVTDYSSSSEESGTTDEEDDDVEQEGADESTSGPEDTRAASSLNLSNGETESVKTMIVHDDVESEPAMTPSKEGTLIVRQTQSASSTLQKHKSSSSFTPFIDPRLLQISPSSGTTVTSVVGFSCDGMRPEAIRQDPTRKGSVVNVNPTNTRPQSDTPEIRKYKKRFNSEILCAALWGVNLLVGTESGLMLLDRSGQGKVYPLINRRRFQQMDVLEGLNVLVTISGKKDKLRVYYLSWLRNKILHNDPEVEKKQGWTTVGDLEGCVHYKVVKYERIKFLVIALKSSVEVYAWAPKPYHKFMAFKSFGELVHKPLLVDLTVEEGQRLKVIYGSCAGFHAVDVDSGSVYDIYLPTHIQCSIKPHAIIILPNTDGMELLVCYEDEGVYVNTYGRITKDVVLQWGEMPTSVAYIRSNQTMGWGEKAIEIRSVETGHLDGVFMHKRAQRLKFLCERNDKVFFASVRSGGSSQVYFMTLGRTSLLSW
pIC50: −log10 of the molar value.

Given CC(C)n1cnc(-c2ccc(F)cc2)c1-c1nc(C(=O)Nc2ccc(N3C[C@H]4CC[C@@H](C3)N4C)cc2)c[nH]1 , report its pIC50 on MAP4K4 (h) (Homo sapiens (Human)). 7.92 to 9.00

Given CC(C)n1cnc(-c2ccc(F)cc2)c1-c1nc(C(=O)Nc2ccc(N3CCN(S(N)(=O)=O)CC3)cc2)c[nH]1 , report its pIC50 on MAP4K4 (h) (Homo sapiens (Human)). 6.92 to 7.92

Given CC(C)n1cnc(-c2ccc(F)cc2)c1-c1cccc(C(=O)Nc2ccc(N3CCN(CCO)CC3)cc2)n1 , report its pIC50 on MAP4K4 (h) (Homo sapiens (Human)). 7.92 to 9.00

Given CC(C)n1cnc(-c2ccc(F)cc2)c1-c1nc(C(=O)Nc2ccc(CCC(=O)O)cc2)c[nH]1 , report its pIC50 on MAP4K4 (h) (Homo sapiens (Human)). < 6.92

====

# experimental-target: UniProt Q9UKE5
# Sequence (Q9UKE5 whole entry): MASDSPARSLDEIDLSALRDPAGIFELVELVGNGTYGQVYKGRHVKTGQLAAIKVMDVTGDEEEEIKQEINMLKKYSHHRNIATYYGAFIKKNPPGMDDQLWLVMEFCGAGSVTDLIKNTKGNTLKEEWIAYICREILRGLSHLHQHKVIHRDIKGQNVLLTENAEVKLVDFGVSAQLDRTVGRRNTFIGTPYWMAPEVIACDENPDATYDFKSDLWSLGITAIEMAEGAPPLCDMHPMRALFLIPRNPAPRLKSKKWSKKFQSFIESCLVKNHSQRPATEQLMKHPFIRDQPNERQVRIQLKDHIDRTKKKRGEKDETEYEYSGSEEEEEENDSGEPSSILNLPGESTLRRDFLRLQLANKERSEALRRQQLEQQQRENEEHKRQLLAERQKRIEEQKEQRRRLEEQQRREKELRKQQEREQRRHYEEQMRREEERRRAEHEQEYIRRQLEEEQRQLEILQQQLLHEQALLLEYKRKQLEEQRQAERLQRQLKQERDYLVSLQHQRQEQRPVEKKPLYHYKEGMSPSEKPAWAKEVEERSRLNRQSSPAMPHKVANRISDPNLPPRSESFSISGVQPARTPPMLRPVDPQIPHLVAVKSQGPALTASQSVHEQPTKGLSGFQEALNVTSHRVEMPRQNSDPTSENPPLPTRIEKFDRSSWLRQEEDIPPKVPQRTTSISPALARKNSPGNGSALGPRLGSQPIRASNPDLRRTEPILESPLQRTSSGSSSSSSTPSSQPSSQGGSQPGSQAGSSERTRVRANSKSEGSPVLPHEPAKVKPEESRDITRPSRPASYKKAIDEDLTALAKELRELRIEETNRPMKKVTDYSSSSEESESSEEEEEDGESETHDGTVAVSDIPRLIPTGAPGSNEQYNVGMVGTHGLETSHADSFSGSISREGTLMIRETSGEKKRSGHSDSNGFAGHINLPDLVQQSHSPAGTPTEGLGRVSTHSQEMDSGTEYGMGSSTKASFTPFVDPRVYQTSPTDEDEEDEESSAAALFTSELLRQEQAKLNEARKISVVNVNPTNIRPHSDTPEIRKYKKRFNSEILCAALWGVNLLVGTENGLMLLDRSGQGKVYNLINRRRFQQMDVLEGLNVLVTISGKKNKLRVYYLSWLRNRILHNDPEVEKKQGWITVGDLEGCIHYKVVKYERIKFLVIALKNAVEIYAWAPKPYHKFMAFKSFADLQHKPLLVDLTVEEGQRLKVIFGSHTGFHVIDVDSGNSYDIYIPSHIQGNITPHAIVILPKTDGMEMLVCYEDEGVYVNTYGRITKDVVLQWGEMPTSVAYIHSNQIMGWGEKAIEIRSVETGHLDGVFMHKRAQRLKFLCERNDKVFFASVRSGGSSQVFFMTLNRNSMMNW
# assay-details: TNIK Human STE Kinase Enzymatic Radiometric Assay;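 also: remaining kinase activity relative to DMSO control, compound added without preincubation, reaction started with ATP, IC50 from variable-slope sigmoidal dose-response fit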
# Type: biochemical
# assay-context: ATP 70 μM; 40 min at room temperature; read-out: TNIK (IC50)
value-type: IC50

Below, 3 compounds whose answers are already recorded.
test_smiles=CN1CCN(c2ccc(NC(=O)c3c[nH]c(-c4c(-c5ccc(F)cc5)ncn4[C@H]4CC[C@H](O)CC4)n3)cc2)CC1 result="1 to 12 nM"
test_smiles=CC(C)n1cnc(-c2ccc(F)cc2)c1-c1nc(C(=O)Nc2ccc(CCCCC(=O)O)cc2)c[nH]1 result="12 to 120 nM"
test_smiles=CC(C)n1cnc(-c2ccc(F)cc2)c1-c1nc(C(=O)Nc2ccc(N3C[C@H]4CC[C@@H](C3)N4C)cc2)c[nH]1 result="1 to 12 nM"

Fill in IC50 for record CC(=O)N1CCN(c2ccc(NC(=O)c3c[nH]c(-c4c(-c5ccc(F)cc5)ncn4CC(F)(F)F)n3)cc2)CC1 12 to 120 nM

Fill in IC50 for record O=C(Nc1ccc(N2CCN(CCO)CC2)cc1)c1c[nH]c(-c2c(-c3ccc(F)cc3)ncn2[C@H]2CC[C@H](O)CC2)n1 1 to 12 nM

Fill in IC50 for record CC(C)n1cnc(-c2ccc(F)cc2)c1-c1nc(C(=O)Nc2ccc(N3CCN(C(N)=O)CC3)cc2)c[nH]1 > 120 nM

Fill in IC50 for record CC(C)n1cnc(-c2ccc(F)cc2)c1-c1nc(C(=O)Nc2ccc(CCO)cc2)c[nH]1 12 to 120 nM
